Taken from the kinase profiling compilation of Christmann-Franck et al. (2016).

Some compounds, each annotated with its measured residual activity.
# target.desc: CDK7 CCNH MNAT1 (human) (UniProt P50613+P51948+P51946)
# Sequence (P50613 whole entry, looked up): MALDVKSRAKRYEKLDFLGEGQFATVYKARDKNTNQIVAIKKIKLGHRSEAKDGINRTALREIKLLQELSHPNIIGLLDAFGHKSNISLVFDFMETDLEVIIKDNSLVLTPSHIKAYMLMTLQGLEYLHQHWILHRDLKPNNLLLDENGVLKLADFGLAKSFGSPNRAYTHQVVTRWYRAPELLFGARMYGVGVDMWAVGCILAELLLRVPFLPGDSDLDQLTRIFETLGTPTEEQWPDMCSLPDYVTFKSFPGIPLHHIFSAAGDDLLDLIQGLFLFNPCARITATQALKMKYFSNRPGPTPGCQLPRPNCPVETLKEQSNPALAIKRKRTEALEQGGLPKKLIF
# Sequence (P51946 whole entry, looked up): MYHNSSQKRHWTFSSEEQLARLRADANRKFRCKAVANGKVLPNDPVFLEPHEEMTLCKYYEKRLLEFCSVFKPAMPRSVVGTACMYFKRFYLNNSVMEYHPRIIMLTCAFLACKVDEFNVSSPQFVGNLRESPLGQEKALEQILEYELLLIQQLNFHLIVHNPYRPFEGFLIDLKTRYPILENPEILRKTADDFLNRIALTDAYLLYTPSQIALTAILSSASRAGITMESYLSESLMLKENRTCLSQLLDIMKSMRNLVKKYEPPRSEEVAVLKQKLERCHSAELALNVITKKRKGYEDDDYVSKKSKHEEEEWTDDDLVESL
# Sequence (P51948 whole entry, looked up): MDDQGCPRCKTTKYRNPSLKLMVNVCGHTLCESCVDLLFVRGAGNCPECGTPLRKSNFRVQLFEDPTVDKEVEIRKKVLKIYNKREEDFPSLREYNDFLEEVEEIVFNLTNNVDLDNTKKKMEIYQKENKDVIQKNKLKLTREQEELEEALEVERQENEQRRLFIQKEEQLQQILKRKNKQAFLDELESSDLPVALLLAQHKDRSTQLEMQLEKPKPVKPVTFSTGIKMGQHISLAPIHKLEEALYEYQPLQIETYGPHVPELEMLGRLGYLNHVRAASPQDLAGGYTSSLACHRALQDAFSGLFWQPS
# assay.explanation: radiometric filter-binding kinase assay, Kinase HotSpot
# condition: compound 0.5 µM; ATP 10 µM
measurement.kind: residual activity (%)

* N/C(=N\N=C/c1ccc(-c2cccc([N+](=O)[O-])c2)o1)N[N+](=O)[O-] | 100
* Cc1cc(Nc2nc(-c3ccccc3)nc3ccccc23)n[nH]1 | 73.3
* COc1cc2c(cc1OC)-c1[nH]nc(Nc3cccc(F)c3)c1C2 | 101
* COc1cc2c(Nc3ccc(Br)cc3F)ncnc2cc1OCC1CCN(C)CC1 | 102
* O=c1cc(N2CCOCC2)oc2c(-c3ccccc3)cccc12 | 95.4
* O=c1c2ccccc2[nH]c(=S)n1CCN1CCC(=C(c2ccc(F)cc2)c2ccc(F)cc2)CC1 | 99.6
* FC(F)(F)c1ccc(/C=C/c2nc(COc3ccc(CCCCn4ccnn4)cc3)co2)cc1 | 107
* O=C(O)c1ccc2c3c1cccc3c(=O)n1c3ccccc3nc21 | 92.1
* O=C1NC(=O)c2cc(Nc3ccc(F)cc3)c(Nc3ccc(F)cc3)cc21 | 100
* CCc1nc(-c2ccc(OC)cc2)[nH]c1-c1ccncc1 | 97.3
* CCOc1cc2ncnc(Nc3cccc(Br)c3)c2cc1OCC | 93
* Nc1ncnc2c1cnn2-c1ccccc1 | 102
* Cn1cc(/C=C2\C(=O)Nc3ccc(S(N)(=O)=O)cc32)c2ccccc21 | 73.7
* N#Cc1c(NC(=O)c2cccc3ccccc23)sc2c1CCCC2 | 101
* N#C/C(=C1/Nc2ccccc2S1)c1ccnc(NCCc2cccnc2)n1 | 93.2
* CC(C)(C)n1nc(Cc2cccc3ccccc23)c2c(N)ncnc21 | 100
* COc1cc2c(N3CCN(C(=O)Nc4ccc(OC(C)C)cc4)CC3)ncnc2cc1OCCCN1CCCCC1 | 109
* O=C1NC(=O)c2c1c1c3ccccc3[nH]c1c1[nH]c3cc(Br)ccc3c21 | 93.1
* COc1cc2ncnc(Nc3ccc(O)c(Br)c3)c2cc1OC | 97

* * *

# target.desc: MAP4K2 (human) (UniProt Q12851)
# Sequence (Q12851 whole entry, looked up): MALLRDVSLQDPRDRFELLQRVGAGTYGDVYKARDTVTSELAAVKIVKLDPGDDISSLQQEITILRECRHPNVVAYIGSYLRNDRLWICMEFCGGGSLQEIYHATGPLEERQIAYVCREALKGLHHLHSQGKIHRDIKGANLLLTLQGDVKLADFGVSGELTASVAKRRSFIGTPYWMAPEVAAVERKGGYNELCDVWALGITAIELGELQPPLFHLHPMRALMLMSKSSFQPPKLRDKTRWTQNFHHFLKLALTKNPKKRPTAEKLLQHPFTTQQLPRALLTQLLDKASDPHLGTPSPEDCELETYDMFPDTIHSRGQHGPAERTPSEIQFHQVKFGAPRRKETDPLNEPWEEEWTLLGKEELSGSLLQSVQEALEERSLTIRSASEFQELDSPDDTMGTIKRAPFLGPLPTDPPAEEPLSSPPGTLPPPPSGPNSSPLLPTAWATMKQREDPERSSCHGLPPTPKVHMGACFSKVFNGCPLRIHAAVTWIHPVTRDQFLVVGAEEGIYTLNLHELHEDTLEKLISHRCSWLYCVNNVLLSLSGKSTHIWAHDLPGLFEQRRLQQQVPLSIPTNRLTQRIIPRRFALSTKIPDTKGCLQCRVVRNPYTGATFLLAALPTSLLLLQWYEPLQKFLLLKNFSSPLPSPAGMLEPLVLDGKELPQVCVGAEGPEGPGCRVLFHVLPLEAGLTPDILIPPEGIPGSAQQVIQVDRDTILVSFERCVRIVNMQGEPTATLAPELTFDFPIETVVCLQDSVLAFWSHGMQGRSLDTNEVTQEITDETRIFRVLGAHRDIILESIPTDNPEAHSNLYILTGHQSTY
# assay.explanation: radiometric filter-binding kinase assay, Kinase HotSpot
# condition: compound 0.5 µM; ATP 10 µM
Reported residual activity values follow for various molecules
measurement.kind: residual activity (%)

- N/C(=N\N=C/c1ccc(-c2cccc([N+](=O)[O-])c2)o1)N[N+](=O)[O-]: 115
- O=C1NC(=O)c2cc(Nc3ccc(F)cc3)c(Nc3ccc(F)cc3)cc21: 98.2
- O=c1c2ccccc2[nH]c(=S)n1CCN1CCC(=C(c2ccc(F)cc2)c2ccc(F)cc2)CC1: 112
- N#C/C(=C1/Nc2ccccc2S1)c1ccnc(NCCc2cccnc2)n1: 76.9
- CCOc1cc2ncnc(Nc3cccc(Br)c3)c2cc1OCC: 91.5
- COc1cc2ncnc(Nc3ccc(O)c(Br)c3)c2cc1OC: 101
- O=C(c1ccccc1)c1ccc(N2CCOCC2)cc1O: 116

* * *

# target.desc: EPHB3 (human) (UniProt P54753)
# Sequence (P54753 whole entry, looked up): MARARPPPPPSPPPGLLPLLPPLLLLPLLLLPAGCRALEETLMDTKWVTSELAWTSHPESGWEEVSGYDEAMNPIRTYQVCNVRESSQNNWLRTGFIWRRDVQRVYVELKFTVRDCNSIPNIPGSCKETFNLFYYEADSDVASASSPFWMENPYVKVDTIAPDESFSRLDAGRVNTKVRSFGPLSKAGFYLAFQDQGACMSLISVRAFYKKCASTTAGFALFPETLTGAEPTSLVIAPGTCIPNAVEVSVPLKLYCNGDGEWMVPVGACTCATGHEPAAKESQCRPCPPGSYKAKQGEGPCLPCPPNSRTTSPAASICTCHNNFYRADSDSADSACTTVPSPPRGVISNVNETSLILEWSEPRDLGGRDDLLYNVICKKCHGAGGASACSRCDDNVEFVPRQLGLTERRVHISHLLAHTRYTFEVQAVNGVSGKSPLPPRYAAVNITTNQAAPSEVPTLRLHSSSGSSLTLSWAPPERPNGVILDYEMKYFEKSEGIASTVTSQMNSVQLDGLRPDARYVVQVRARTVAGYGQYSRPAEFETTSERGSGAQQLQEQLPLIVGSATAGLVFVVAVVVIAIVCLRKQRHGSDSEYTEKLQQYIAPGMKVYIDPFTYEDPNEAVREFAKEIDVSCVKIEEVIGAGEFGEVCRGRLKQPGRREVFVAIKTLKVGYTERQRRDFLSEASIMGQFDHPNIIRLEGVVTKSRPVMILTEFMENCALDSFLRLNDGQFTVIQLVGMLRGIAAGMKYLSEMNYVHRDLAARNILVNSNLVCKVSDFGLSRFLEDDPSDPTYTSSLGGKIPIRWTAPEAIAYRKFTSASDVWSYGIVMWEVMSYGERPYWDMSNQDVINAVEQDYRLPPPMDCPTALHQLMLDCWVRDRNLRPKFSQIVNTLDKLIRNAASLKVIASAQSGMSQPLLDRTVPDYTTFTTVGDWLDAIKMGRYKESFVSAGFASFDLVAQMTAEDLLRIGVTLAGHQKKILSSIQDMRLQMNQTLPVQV
# assay.explanation: radiometric filter-binding kinase assay, Kinase HotSpot
# condition: compound 0.5 µM; ATP 10 µM
measurement.kind: residual activity

* O=c1c(-c2ccc(F)cc2)c(-c2ccncc2)[nH]n1-c1ccc(Cl)cc1 | 92.2%
* O=C(O)c1ccc2c3c1cccc3c(=O)n1c3ccccc3nc21 | 94.5%
* O=c1c2ccccc2[nH]c(=S)n1CCN1CCC(=C(c2ccc(F)cc2)c2ccc(F)cc2)CC1 | 92.8%

* * *

Below: a set of entries, each annotated with reported residual activity.
# target.desc: GSK3B (human)
# assay.explanation: radiometric filter-binding kinase assay, Kinase HotSpot
# condition: compound 0.5 µM; ATP 10 µM
measurement.kind: residual activity (%)

• O=C1NC(=O)c2cc(Nc3ccc(F)cc3)c(Nc3ccc(F)cc3)cc21 = 89.2
• N#C/C(=C1/Nc2ccccc2S1)c1ccnc(NCCc2cccnc2)n1 = 6.2
• O=c1cc(N2CCOCC2)oc2c(-c3ccccc3)cccc12 = 96.9
• COc1cc2c(cc1OC)-c1[nH]nc(Nc3cccc(F)c3)c1C2 = 96.6
• O=C(O)c1ccc2c3c1cccc3c(=O)n1c3ccccc3nc21 = 100
• O=c1c(-c2ccc(F)cc2)c(-c2ccncc2)[nH]n1-c1ccc(Cl)cc1 = 91.6
• O=C1NC(=O)c2c1c1c3ccccc3[nH]c1c1[nH]c3cc(Br)ccc3c21 = 63.7
• O=c1[nH]c2ccccc2n1C1CCN(Cc2ccc(-c3nc4cc5[nH]cnc5cc4nc3-c3ccccc3)cc2)CC1 = 113
• O=C(c1ccccc1)c1ccc(N2CCOCC2)cc1O = 118
• FC(F)(F)c1ccc(/C=C/c2nc(COc3ccc(CCCCn4ccnn4)cc3)co2)cc1 = 100

* * *

# target.desc: PRKCG (human)
# assay.explanation: radiometric filter-binding kinase assay, Kinase HotSpot
# condition: compound 0.5 µM; ATP 10 µM
measurement.kind: residual activity (%)

- COc1cc2c(N3CCN(C(=O)Nc4ccc(OC(C)C)cc4)CC3)ncnc2cc1OCCCN1CCCCC1: 90.9
- COc1cc2c(Nc3ccc(Br)cc3F)ncnc2cc1OCC1CCN(C)CC1: 93.2
- Cn1cc(/C=C2\C(=O)Nc3ccc(S(N)(=O)=O)cc32)c2ccccc21: 106

* * *

# target.desc: MAPKAPK5 (human)
# assay.explanation: radiometric filter-binding kinase assay, Kinase HotSpot
# condition: compound 0.5 µM; ATP 10 µM
Attribute: residual activity
measurement.kind: residual activity (%)

- O=C(O)c1ccc2c3c1cccc3c(=O)n1c3ccccc3nc21: 96
- Cn1cc(/C=C2\C(=O)Nc3ccc(S(N)(=O)=O)cc32)c2ccccc21: 88.3
- O=S(=O)(NCCNC/C=C/c1ccc(Br)cc1)c1cccc2cnccc12: 90.2
- CCOc1cc2ncnc(Nc3cccc(Br)c3)c2cc1OCC: 71.6
- N/C(=N\N=C/c1ccc(-c2cccc([N+](=O)[O-])c2)o1)N[N+](=O)[O-]: 94.6
- N#CCCc1ccc2c(c1)-c1[nH]c3ccc([N+](=O)[O-])cc3c1CC(=O)N2: 94.3
- FC(F)(F)c1ccc(/C=C/c2nc(COc3ccc(CCCCn4ccnn4)cc3)co2)cc1: 101
- O=c1cc(N2CCOCC2)oc2c(-c3ccccc3)cccc12: 94.1
- N#C/C(=C1/Nc2ccccc2S1)c1ccnc(NCCc2cccnc2)n1: 98.3
- COc1cc2ncnc(Nc3ccc(O)c(Br)c3)c2cc1OC: 98.7
- CCCCc1c(-c2ccc(O)cc2)[nH]c2nccnc12: 93.1
- CCc1nc(-c2ccc(OC)cc2)[nH]c1-c1ccncc1: 95.2
- O=C1NC(=O)c2cc(Nc3ccc(F)cc3)c(Nc3ccc(F)cc3)cc21: 93.4
- O=C(c1ccccc1)c1ccc(N2CCOCC2)cc1O: 99.8
- COc1cccc(-c2cc(=O)c3ccccc3o2)c1N: 122
- O=c1c2ccccc2[nH]c(=S)n1CCN1CCC(=C(c2ccc(F)cc2)c2ccc(F)cc2)CC1: 101
- Nc1ncnc2c1cnn2-c1ccccc1: 87.1
- COc1cc2c(Nc3ccc(Br)cc3F)ncnc2cc1OCC1CCN(C)CC1: 94.7

* * *

# target.desc: CHEK2 (human) (UniProt O96017)
# Sequence (O96017 whole entry, looked up): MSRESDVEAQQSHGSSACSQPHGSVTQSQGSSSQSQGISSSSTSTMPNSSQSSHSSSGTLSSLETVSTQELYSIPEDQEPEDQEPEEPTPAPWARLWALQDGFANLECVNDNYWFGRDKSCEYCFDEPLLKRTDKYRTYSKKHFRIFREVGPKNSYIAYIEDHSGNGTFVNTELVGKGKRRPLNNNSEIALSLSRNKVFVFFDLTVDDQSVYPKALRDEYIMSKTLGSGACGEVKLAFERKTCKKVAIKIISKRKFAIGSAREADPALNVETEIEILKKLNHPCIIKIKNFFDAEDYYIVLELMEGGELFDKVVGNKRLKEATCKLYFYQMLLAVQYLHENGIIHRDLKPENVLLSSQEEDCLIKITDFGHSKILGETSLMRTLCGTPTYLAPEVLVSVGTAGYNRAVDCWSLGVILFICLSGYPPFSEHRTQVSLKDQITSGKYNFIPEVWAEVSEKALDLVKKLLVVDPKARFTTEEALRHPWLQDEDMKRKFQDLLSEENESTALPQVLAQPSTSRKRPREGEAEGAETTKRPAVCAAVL
# assay.explanation: radiometric filter-binding kinase assay, Kinase HotSpot
# condition: compound 0.5 µM; ATP 10 µM
Give class 1 when the value for residual activity is at least 90%. Give class 0 when it is less.

- Cn1cc(/C=C2\C(=O)Nc3ccc(S(N)(=O)=O)cc32)c2ccccc21: class 0
- FC(F)(F)c1ccc(/C=C/c2nc(COc3ccc(CCCCn4ccnn4)cc3)co2)cc1: class 1
- CCCCc1c(-c2ccc(O)cc2)[nH]c2nccnc12: class 0
- CCc1nc(-c2ccc(OC)cc2)[nH]c1-c1ccncc1: class 1
- COc1cc2c(N3CCN(C(=O)Nc4ccc(OC(C)C)cc4)CC3)ncnc2cc1OCCCN1CCCCC1: class 1
- COc1cc2ncnc(Nc3ccc(O)c(Br)c3)c2cc1OC: class 0
- N/C(=N\N=C/c1ccc(-c2cccc([N+](=O)[O-])c2)o1)N[N+](=O)[O-]: class 1
- N#Cc1c(NC(=O)c2cccc3ccccc23)sc2c1CCCC2: class 1
- O=c1cc(N2CCOCC2)oc2c(-c3ccccc3)cccc12: class 1
- Nc1ncnc2c1cnn2-c1ccccc1: class 1

* * *

# target.desc: EPHB1 (human) (UniProt P54762)
# Sequence (P54762 whole entry, looked up): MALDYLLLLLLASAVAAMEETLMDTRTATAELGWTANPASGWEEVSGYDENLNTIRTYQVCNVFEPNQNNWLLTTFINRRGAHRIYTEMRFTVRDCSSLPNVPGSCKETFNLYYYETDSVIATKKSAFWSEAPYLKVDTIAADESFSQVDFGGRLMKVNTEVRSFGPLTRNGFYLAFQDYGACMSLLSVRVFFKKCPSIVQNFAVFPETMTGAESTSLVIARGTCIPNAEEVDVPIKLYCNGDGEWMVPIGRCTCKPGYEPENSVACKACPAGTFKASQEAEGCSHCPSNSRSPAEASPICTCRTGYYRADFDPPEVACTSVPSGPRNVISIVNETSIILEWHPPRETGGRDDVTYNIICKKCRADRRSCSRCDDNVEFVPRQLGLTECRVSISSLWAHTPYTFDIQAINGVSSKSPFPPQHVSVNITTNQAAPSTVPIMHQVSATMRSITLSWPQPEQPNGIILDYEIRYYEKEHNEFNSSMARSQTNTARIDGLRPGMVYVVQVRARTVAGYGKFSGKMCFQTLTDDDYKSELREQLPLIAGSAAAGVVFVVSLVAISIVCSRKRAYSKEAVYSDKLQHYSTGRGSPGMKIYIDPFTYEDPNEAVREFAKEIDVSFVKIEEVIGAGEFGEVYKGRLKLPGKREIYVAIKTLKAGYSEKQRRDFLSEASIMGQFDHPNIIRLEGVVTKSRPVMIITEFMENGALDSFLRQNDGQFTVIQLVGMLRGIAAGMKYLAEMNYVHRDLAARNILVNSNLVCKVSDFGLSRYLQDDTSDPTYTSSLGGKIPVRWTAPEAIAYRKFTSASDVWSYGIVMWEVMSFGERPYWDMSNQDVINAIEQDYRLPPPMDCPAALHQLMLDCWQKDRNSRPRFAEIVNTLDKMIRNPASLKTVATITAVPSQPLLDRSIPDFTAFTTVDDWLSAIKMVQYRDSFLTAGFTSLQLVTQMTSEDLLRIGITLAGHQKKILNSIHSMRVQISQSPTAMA
# assay.explanation: radiometric filter-binding kinase assay, Kinase HotSpot
# condition: compound 0.5 µM; ATP 10 µM
// values below are reported residual activity
measurement.kind: residual activity (%)

• COc1cccc(-c2cc(=O)c3ccccc3o2)c1N = 88
• COc1cc2ncnc(Nc3ccc(O)c(Br)c3)c2cc1OC = 81.4
• c1ccc(-c2cnc(Nc3ccc(OCCN4CCCC4)cc3)s2)cc1 = 95.4
